assay: soluble fraction after stress (log2 fold change); higher = more stays soluble; pooled small domains, quantitative proteomics; conditions: stress: 75 degC;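 further: 20 min heating vs room temperature control held 20 min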
soluble fraction (log2) values, listed per item
Please reply with the number alone, leaving off any unit.

Example entries begin here.
1) HMPLEQAELRLDLKQAILQMDRQTQELLLLRYVDGLSPGEAGKVLELSRFAVYRREKEALRKLRDYFSH ... -1.93
2) HMGAVPKNYFPAVEKGLQDSVQKGLLAGYPVVGVKAILYDGSYHPVDSSEMAFKTATIQAFKKGFMEA ... 0.187
3) HMGDFLLQVDFPPALLEMLPEGKRQAAIGVLSHDPRPAYQRTPGRVYGLNFAGHNIRFAVSENLLTVLEV ... -2.16
4) HMDSLNWVEKIINTLPEQQRLIIQMRDIEQYEFAEIAKILEMNETAIRVALSRARKTIREFMIKTH ... -2.07
5) HMAVEETFTITWLDRDGTVLEVDENVLKGTMPSFDGHIPPHDGLEFKGWDPEVVPVEGDATYTATYKA ... 0.508

Task item: Identify the reported soluble fraction (log2) for the following entry. `HMSKDKEKRTREHVLGILKKYDKVMTDKAFTVFKKMIKDESILEMELIKLINFIGERKEIRSKDVLAVVTE`
Reply: -0.504

Task item: Give the reported soluble fraction (log2) for this sequence. `HMWAQSVSLHGLLGRQALLIVDGKPPRAVAPGQTHLGVTVLSTDEDRAVVALAGGQRLTLRVGESPVSVG`
Reply: -1.51

Task item: Note soluble fraction (log2) for the sequence shown: `HMEYTTEELDSLLKLYFQTHESINRNEFEQLTSYTRTTASRRLKTLVQAGKLQNIGLYRFPVYKPTEGNF`
Reply: -2.82

Provenance of the data: the domain aggregation screens of Martell et al. (2025)
